- Assay Protocol: Aqueous solubility (pH 7.4)
- Type: physicochemical
- Measurement Setup: pH 7.4
Measured Attribute: Aqueous Solubility Classification

>>> observed_measurement("O=C1COc2c(ccc3c2c2ncccc2n3CCCF)N1 [PLA1183]")
"Low"
>>> observed_measurement("CC(=O)c1ccc2c(c1)c1c3c(ccc1n2CCCF)C(=O)CC3 [PLA1198]")
"Low"
>>> observed_measurement("O=c1c2ccc3c(c2ccn1CCO)c1ccccc1n3CCCF [PLA1192]")
"Moderate"
>>> observed_measurement("CN1Cc2c(ccc3c2c2ccccc2n3CCC(F)F)C1=O [PLA1194]")
"Moderate"
>>> observed_measurement("O=c1c2ccc3c(c2ccn1CCN1CCCC1)c1ccccc1n3CCCF [PLA1193]")
"High"
>>> observed_measurement("O=C1CCc2c1ccc1c2c2cc(Br)ccc2n1CCCF [PLA1199]")
"Low"
>>> observed_measurement("N#Cc1cccc2c1c1c3cc[nH]c(=O)c3ccc1n2CCCF [PLA1195]")
"Low"
>>> observed_measurement("O=C1CCc2c1ccc1c2c2c(F)cccc2n1CCCF [PLA1197]")
"Low"
>>> observed_measurement("CC(=O)c1ccc2c(c1)c1c(C(N)=O)cccc1n2CCCF [PLA1191]")
"High"
>>> observed_measurement("NC(=O)c1cccc2c1c1c3cc[nH]c(=O)c3ccc1n2CCCF [PLA1196]")
"Moderate"
>>> observed_measurement("O=c1[nH]c2ccc3c(c4ccccc4n3CCCF)c2o1 [PLA1190]")
"Low"
>>> observed_measurement("O=c1[nH]ccc2c1ccc1c2c2ncccc2n1CCCF [PLA1181]")
"Low"

====

- Assay Protocol: Metabolic stability in the presence of mouse liver microsomes
- Format: in vitro ADME
- Measurement Setup: classification (Stable/Moderate/Unstable), lines whose second value is in %
Measured Attribute: Metabolic stability, % left after 30 min with mouse liver microsomes

>>> observed_measurement("O=C1CCc2c1ccc1c2c2c(F)cccc2n1CCCF")
"Stable"
>>> observed_measurement("CC(=O)c1ccc2c(c1)c1c3c(ccc1n2CCCF)C(=O)CC3")
"Moderate"
>>> observed_measurement("O=C1CCc2c1ccc1c2c2cc(Br)ccc2n1CCCF")
"Moderate"
>>> observed_measurement("CC(=O)c1ccc2c(c1)c1c(C(N)=O)cccc1n2CCCF")
"Moderate"
>>> observed_measurement("O=c1[nH]c2ccc3c(c4ccccc4n3CCCF)c2o1")
"Stable"
>>> observed_measurement("N#Cc1cccc2c1c1c3cc[nH]c(=O)c3ccc1n2CCCF")
"Moderate"

====

- Tested on: CWR22R
- Assay Protocol: cells
- Assay type: cell-based
Measured Attribute: CC50 (µM)

>>> observed_measurement("CCCn1c2ccccc2c2c3c(ccc21)C(=O)N(C)C3")
0.04
>>> observed_measurement("CC(=O)c1ccc2c(c1)c1ccccc1n2CCCF")
0.04
>>> observed_measurement("CCCn1c2ccccc2c2cc(-c3nnco3)ccc21")
0.12
>>> observed_measurement("O=C1NCCOc2c1ccc1c2c2ccccc2n1CCCF")
0.2
>>> observed_measurement("FCCCn1c2ccccc2c2cc(-c3nnco3)ccc21")
0.1

====

- Assay Protocol: Aqueous solubility (pH 7.4)
- Type: physicochemical
- Measurement Setup: pH 7.4
Measured Attribute: Aqueous Solubility (pH 7.4) (μM)

>>> observed_measurement("O=C1CCc2c1ccc1c2c2c(F)cccc2n1CCCF")
4.0
>>> observed_measurement("O=c1c2ccc3c(c2ccn1CCO)c1ccccc1n3CCCF")
15
>>> observed_measurement("CC(=O)c1ccc2c(c1)c1c3c(ccc1n2CCCF)C(=O)CC3")
2.5
>>> observed_measurement("CN1Cc2c(ccc3c2c2ccccc2n3CCC(F)F)C1=O")
18
>>> observed_measurement("N#Cc1cccc2c1c1c3cc[nH]c(=O)c3ccc1n2CCCF")
2.7
>>> observed_measurement("CC(=O)c1ccc2c(c1)c1c(C(N)=O)cccc1n2CCCF")
130
>>> observed_measurement("O=c1[nH]c2ccc3c(c4ccccc4n3CCCF)c2o1")
3.5
>>> observed_measurement("NC(=O)c1cccc2c1c1c3cc[nH]c(=O)c3ccc1n2CCCF")
26
>>> observed_measurement("O=c1c2ccc3c(c2ccn1CCN1CCCC1)c1ccccc1n3CCCF")
140
>>> observed_measurement("O=C1CCc2c1ccc1c2c2cc(Br)ccc2n1CCCF")
2.3

====

Overview of reported Metabolic stability, % left after 30 min with mouse liver microsomes across a group of compounds:
- Assay Protocol: Metabolic stability in the presence of mouse liver microsomes
- Format: in vitro ADME
- Measurement Setup: in %; table title: Metabolic stability and solubility; % left after 30 minute incubation with mouse liver microsome
Measured Attribute: Metabolic stability, % left after 30 min with mouse liver microsomes (%)

>>> observed_measurement("O=c1c2ccc3c(c2ccn1CCO)c1ccccc1n3CCCF")
27
>>> observed_measurement("O=c1[nH]c2ccc3c(c4ccccc4n3CCCF)c2o1")
77
>>> observed_measurement("CC(=O)c1ccc2c(c1)c1c(C(N)=O)cccc1n2CCCF")
30
>>> observed_measurement("NC(=O)c1cccc2c1c1c3cc[nH]c(=O)c3ccc1n2CCCF")
65
>>> observed_measurement("CN1Cc2c(ccc3c2c2ccccc2n3CCC(F)F)C1=O")
28
>>> observed_measurement("CC(=O)c1ccc2c(c1)c1c3c(ccc1n2CCCF)C(=O)CC3")
46
>>> observed_measurement("O=c1c2ccc3c(c2ccn1CCN1CCCC1)c1ccccc1n3CCCF")
3
>>> observed_measurement("O=C1CCc2c1ccc1c2c2c(F)cccc2n1CCCF")
73
>>> observed_measurement("N#Cc1cccc2c1c1c3cc[nH]c(=O)c3ccc1n2CCCF")
63
>>> observed_measurement("O=C1CCc2c1ccc1c2c2cc(Br)ccc2n1CCCF")
42
